# Substrate: O=c1ccn([C@@H]2O[C@H](COP(=O)(O)OP(=O)(O)O[C@H]3O[C@H](CO)[C@H](O)[C@H](O)[C@H]3O)[C@@H](O)[C@H]2O)c(=O)[nH]1
# experiment.description: galactosyltransferase assay, HPLC-UV
# Type: biochemical, Homo sapiens
# condition.info: apparent, fixed 5 mM 4-MUX, 10 mM MnCl2, 100 mM sodium cacodylate pH 7.0, 37 °C
# Excerpt: galactosyltransferase assay, HPLC-UV on hβ4GalT7 (GST-β4GalT7)

[
  {
    "protein": "hβ4GalT7 (GST-β4GalT7) (Homo sapiens) (protein, truncated soluble form lacking the first 60 N-terminal amino acids (transmembrane domain and part of stem), GST fusion (tag kept), pET-41a(+), E. coli BL21(DE3), glutathione-Sepharose purified) VRGQGQETSGPPRACPPEPPPEHWEEDASWGPHRLAVLVPFRERFEELLVFVPHMRRFLSRKKIRHHIYVLNQVDHFRFNRAALINVGFLESSNSTDYIAMHDVDLLPLNEELDYGFPEAGPFHVASPELHPLYHYKTYVGGILLLSKQHYRLCNGMSNRFWGWGREDDEFYRRIKGAGLQLFRPSGITTGYKTFRHLHDPAWRKRDQKRIAAQKQEQFKVDREGGLNTVKYHVASRTALSVGGAPCTVLNIMLDCDKTATPWCTFS",
    "measurement.units": "µM",
    "Km": 220
  },
  {
    "protein": "hβ4GalT7 (GST-β4GalT7) (Homo sapiens; R270K) (protein, truncated soluble form lacking the first 60 N-terminal amino acids (transmembrane domain and part of stem), GST fusion (tag kept), pET-41a(+), E. coli BL21(DE3), glutathione-Sepharose purified) VRGQGQETSGPPRACPPEPPPEHWEEDASWGPHRLAVLVPFRERFEELLVFVPHMRRFLSRKKIRHHIYVLNQVDHFRFNRAALINVGFLESSNSTDYIAMHDVDLLPLNEELDYGFPEAGPFHVASPELHPLYHYKTYVGGILLLSKQHYRLCNGMSNRFWGWGREDDEFYRRIKGAGLQLFRPSGITTGYKTFRHLHDPAWRKRDQKKIAAQKQEQFKVDREGGLNTVKYHVASRTALSVGGAPCTVLNIMLDCDKTATPWCTFS",
    "measurement.units": "µM",
    "Km": 370
  },
  {
    "protein": "hβ4GalT7 (GST-β4GalT7) (Homo sapiens; R270A) (protein, truncated soluble form lacking the first 60 N-terminal amino acids (transmembrane domain and part of stem), GST fusion (tag kept), pET-41a(+), E. coli BL21(DE3), glutathione-Sepharose purified) VRGQGQETSGPPRACPPEPPPEHWEEDASWGPHRLAVLVPFRERFEELLVFVPHMRRFLSRKKIRHHIYVLNQVDHFRFNRAALINVGFLESSNSTDYIAMHDVDLLPLNEELDYGFPEAGPFHVASPELHPLYHYKTYVGGILLLSKQHYRLCNGMSNRFWGWGREDDEFYRRIKGAGLQLFRPSGITTGYKTFRHLHDPAWRKRDQKAIAAQKQEQFKVDREGGLNTVKYHVASRTALSVGGAPCTVLNIMLDCDKTATPWCTFS",
    "measurement.units": "µM",
    "Km": 270
  },
  {
    "protein": "hβ4GalT7 (GST-β4GalT7) (Homo sapiens; R226K) (protein, truncated soluble form lacking the first 60 N-terminal amino acids (transmembrane domain and part of stem), GST fusion (tag kept), pET-41a(+), E. coli BL21(DE3), glutathione-Sepharose purified) VRGQGQETSGPPRACPPEPPPEHWEEDASWGPHRLAVLVPFRERFEELLVFVPHMRRFLSRKKIRHHIYVLNQVDHFRFNRAALINVGFLESSNSTDYIAMHDVDLLPLNEELDYGFPEAGPFHVASPELHPLYHYKTYVGGILLLSKQHYRLCNGMSNRFWGWGKEDDEFYRRIKGAGLQLFRPSGITTGYKTFRHLHDPAWRKRDQKRIAAQKQEQFKVDREGGLNTVKYHVASRTALSVGGAPCTVLNIMLDCDKTATPWCTFS",
    "measurement.units": "µM",
    "Km": 290
  },
  {
    "protein": "hβ4GalT7 (GST-β4GalT7) (Homo sapiens; H195R) (protein, truncated soluble form lacking the first 60 N-terminal amino acids (transmembrane domain and part of stem), GST fusion (tag kept), pET-41a(+), E. coli BL21(DE3), glutathione-Sepharose purified) VRGQGQETSGPPRACPPEPPPEHWEEDASWGPHRLAVLVPFRERFEELLVFVPHMRRFLSRKKIRHHIYVLNQVDHFRFNRAALINVGFLESSNSTDYIAMHDVDLLPLNEELDYGFPEAGPFHVASPELHPLYRYKTYVGGILLLSKQHYRLCNGMSNRFWGWGREDDEFYRRIKGAGLQLFRPSGITTGYKTFRHLHDPAWRKRDQKRIAAQKQEQFKVDREGGLNTVKYHVASRTALSVGGAPCTVLNIMLDCDKTATPWCTFS",
    "measurement.units": "µM",
    "Km": 320
  },
  {
    "protein": "hβ4GalT7 (GST-β4GalT7) (Homo sapiens; R226A) (protein, truncated soluble form lacking the first 60 N-terminal amino acids (transmembrane domain and part of stem), GST fusion (tag kept), pET-41a(+), E. coli BL21(DE3), glutathione-Sepharose purified) VRGQGQETSGPPRACPPEPPPEHWEEDASWGPHRLAVLVPFRERFEELLVFVPHMRRFLSRKKIRHHIYVLNQVDHFRFNRAALINVGFLESSNSTDYIAMHDVDLLPLNEELDYGFPEAGPFHVASPELHPLYHYKTYVGGILLLSKQHYRLCNGMSNRFWGWGAEDDEFYRRIKGAGLQLFRPSGITTGYKTFRHLHDPAWRKRDQKRIAAQKQEQFKVDREGGLNTVKYHVASRTALSVGGAPCTVLNIMLDCDKTATPWCTFS",
    "measurement.units": "µM",
    "Km": 340
  },
  {
    "protein": "hβ4GalT7 (GST-β4GalT7) (Homo sapiens; Y199F) (protein, truncated soluble form lacking the first 60 N-terminal amino acids (transmembrane domain and part of stem), GST fusion (tag kept), pET-41a(+), E. coli BL21(DE3), glutathione-Sepharose purified) VRGQGQETSGPPRACPPEPPPEHWEEDASWGPHRLAVLVPFRERFEELLVFVPHMRRFLSRKKIRHHIYVLNQVDHFRFNRAALINVGFLESSNSTDYIAMHDVDLLPLNEELDYGFPEAGPFHVASPELHPLYHYKTFVGGILLLSKQHYRLCNGMSNRFWGWGREDDEFYRRIKGAGLQLFRPSGITTGYKTFRHLHDPAWRKRDQKRIAAQKQEQFKVDREGGLNTVKYHVASRTALSVGGAPCTVLNIMLDCDKTATPWCTFS",
    "measurement.units": "µM",
    "Km": 320
  },
  {
    "protein": "hβ4GalT7 (GST-β4GalT7) (Homo sapiens; H195Q) (protein, truncated soluble form lacking the first 60 N-terminal amino acids (transmembrane domain and part of stem), GST fusion (tag kept), pET-41a(+), E. coli BL21(DE3), glutathione-Sepharose purified) VRGQGQETSGPPRACPPEPPPEHWEEDASWGPHRLAVLVPFRERFEELLVFVPHMRRFLSRKKIRHHIYVLNQVDHFRFNRAALINVGFLESSNSTDYIAMHDVDLLPLNEELDYGFPEAGPFHVASPELHPLYQYKTYVGGILLLSKQHYRLCNGMSNRFWGWGREDDEFYRRIKGAGLQLFRPSGITTGYKTFRHLHDPAWRKRDQKRIAAQKQEQFKVDREGGLNTVKYHVASRTALSVGGAPCTVLNIMLDCDKTATPWCTFS",
    "measurement.units": "µM",
    "Km": 330
  },
  {
    "protein": "hβ4GalT7 (GST-β4GalT7) (Homo sapiens; H195A) (protein, truncated soluble form lacking the first 60 N-terminal amino acids (transmembrane domain and part of stem), GST fusion (tag kept), pET-41a(+), E. coli BL21(DE3), glutathione-Sepharose purified) VRGQGQETSGPPRACPPEPPPEHWEEDASWGPHRLAVLVPFRERFEELLVFVPHMRRFLSRKKIRHHIYVLNQVDHFRFNRAALINVGFLESSNSTDYIAMHDVDLLPLNEELDYGFPEAGPFHVASPELHPLYAYKTYVGGILLLSKQHYRLCNGMSNRFWGWGREDDEFYRRIKGAGLQLFRPSGITTGYKTFRHLHDPAWRKRDQKRIAAQKQEQFKVDREGGLNTVKYHVASRTALSVGGAPCTVLNIMLDCDKTATPWCTFS",
    "measurement.units": "µM",
    "Km": 400
  },
  {
    "protein": "hβ4GalT7 (GST-β4GalT7) (Homo sapiens; Y196F) (protein, truncated soluble form lacking the first 60 N-terminal amino acids (transmembrane domain and part of stem), GST fusion (tag kept), pET-41a(+), E. coli BL21(DE3), glutathione-Sepharose purified) VRGQGQETSGPPRACPPEPPPEHWEEDASWGPHRLAVLVPFRERFEELLVFVPHMRRFLSRKKIRHHIYVLNQVDHFRFNRAALINVGFLESSNSTDYIAMHDVDLLPLNEELDYGFPEAGPFHVASPELHPLYHFKTYVGGILLLSKQHYRLCNGMSNRFWGWGREDDEFYRRIKGAGLQLFRPSGITTGYKTFRHLHDPAWRKRDQKRIAAQKQEQFKVDREGGLNTVKYHVASRTALSVGGAPCTVLNIMLDCDKTATPWCTFS",
    "measurement.units": "µM",
    "Km": 340
  }
]
